For each entry below, report its melting point value.
Respond numerically; units are °C and should not be typed.

-- ask # get_value(readout='melting point', item= CC(c1ccc(F)cc1)N1CCN(c2cc(Oc3cccc4sc(N)nc34)ncn2)CC1 (centres unmarked) )
-- reply 222

-- ask Same question for CC(=O)Nc1nc2c(Oc3cc(N4CCN(C(C)c5ccc(F)cc5)CC4)ncn3)cccc2o1 (centres unmarked) please.
-- reply 199.8

-- ask Same question for `C[C@@H](c1ccc(F)cc1)N1CCN(c2cc(Oc3cccc4ccc(N)nc34)ncn2)CC1` please.
-- reply 167

-- ask Same question for CC(c1ccc(F)cc1)N1CCN(c2cc(Oc3cccc4c3NCC(=O)N4)ncn2)CC1 (centres unmarked) please.
-- reply 221

-- ask Same question for `C[C@@H](c1ccc(F)cc1)N1CCN(c2cc(Oc3cc(F)cc4[nH]c(=O)c(N)nc34)ncn2)CC1` please.
-- reply 288

-- ask Same question for CC(c1ccc(F)cc1)N1CCN(c2cc(Oc3cccc4ccncc34)ncn2)CC1 (centres unmarked) please.
-- reply 114

-- ask Same question for `C[C@H](c1ccc(F)cc1)N1CCN(c2cc(Oc3cc(F)cc4[nH]c(=O)c(N)nc34)ncn2)CC1` please.
-- reply 315

-- ask Same question for `C[C@@H](c1ccc(F)cc1)N1CCN(c2cc(Oc3cccc4ncc(N)nc34)ncn2)CC1` please.
-- reply 114

Sourced from patent US7511044B2
